Listing of recorded ED90 by entry.
target under test: Human immunodeficiency virus type 1 protease (Human immunodeficiency virus 1)
assay summary: concentration of compound required to inhibit 90% of RT production in HIV-1/MN-infected MT-2 cells.
Format: functional, cell-based
condition: MT2
Please respond with the number in nM and leave the unit unwritten.

Worked set:
COC(=O)N[C@H](C(=O)N[C@@H](Cc1ccccc1)[C@@H](O)CN(Cc1ccc(-c2cncs2)cc1)NC(=O)[C@@H](NC(=O)OC)C(C)(C)C)C(C)(C)C: 3
COC(=O)N[C@H](C(=O)N[C@@H](Cc1ccccc1)[C@@H](O)CN(Cc1ccc(-c2nccs2)cc1)NC(=O)[C@@H](NC(=O)OC)C(C)(C)C)C(C)(C)C: 3
COC(=O)N[C@H](C(=O)N[C@@H](Cc1ccccc1)[C@@H](O)CN(Cc1ccc(-c2ccccn2)cc1)NC(=O)[C@@H](NC(=O)OC)C(C)(C)C)C(C)(C)C: 3
COC(=O)N[C@H](C(=O)N[C@@H](Cc1ccccc1)[C@@H](O)CN(Cc1ccc(-c2ccccn2)cc1)NC(=O)[C@@H](NC(=O)OC)C(C)C)C(C)C: 30
COC(=O)N[C@H](C(=O)N[C@@H](Cc1ccccc1)[C@@H](O)CN(Cc1ccc(-c2cncs2)cc1)NC(=O)[C@@H](NC(=O)OC)C(C)(C)C)C(C)C: 10

API: the following record is the query input.
Answer with the recorded ED90 for the compound listed here: "COC(=O)N[C@H](C(=O)NN(Cc1ccc(-c2ccccc2)cc1)C[C@H](O)[C@H](Cc1ccccc1)NC(=O)[C@@H](NC(=O)OC)C(C)(C)C)C(C)C"
3

###

Listing of recorded c30 by entry.
Tested on: Mus musculus
assay summary: Drug concentration in blood sample was analyzed by reversed phase HPLC 30 min (c30) after oral application of 120 mg/kg in a standardized formulation
Assay type: functional
Please respond with the number in µM and leave the unit unwritten.

Worked set:
COC(=O)N[C@H](C(=O)NN(Cc1ccc(-c2cncs2)cc1)C[C@H](O)[C@H](Cc1ccccc1)NC(=O)[C@@H](NC(=O)OC)C(C)(C)C)C(C)C: 8.5
COC(=O)N[C@H](C(=O)N[C@@H](Cc1ccccc1)[C@@H](O)CN(Cc1ccc(-c2cncs2)cc1)NC(=O)[C@@H](NC(=O)OC)C(C)(C)C)C(C)(C)C: 12.6
COC(=O)N[C@H](C(=O)N[C@@H](Cc1ccccc1)[C@@H](O)CN(Cc1ccc(-c2cncs2)cc1)NC(=O)[C@@H](NC(=O)OC)C(C)(C)C)C(C)C: 8.5
COC(=O)N[C@H](C(=O)N[C@@H](Cc1ccccc1)[C@@H](O)CN(Cc1ccc(-c2ccccn2)cc1)NC(=O)[C@@H](NC(=O)OC)C(C)(C)C)C(C)(C)C [ATAZANAVIR]: 21.8
COC(=O)N[C@H](C(=O)N[C@@H](Cc1ccccc1)[C@@H](O)CN(Cc1ccc(-c2ccccc2)cc1)NC(=O)[C@@H](NC(=O)OC)C(C)(C)C)C(C)C: 6.3

Answer with the recorded c30 for the compound listed here: "COC(=O)N[C@H](C(=O)N[C@@H](Cc1ccccc1)[C@@H](O)CN(Cc1ccc(-c2ccccn2)cc1)NC(=O)[C@@H](NC(=O)OC)C(C)C)C(C)C"
2.7

###

target under test: Human immunodeficiency virus type 1 protease (Human immunodeficiency virus 1)
assay summary: concentration of compound required to inhibit 90% of RT production in HIV-1/MN-infected MT-2 cells.
Format: functional, cell-based
condition: MT2
measured parameter: ED90 (nM)
Please respond with the number in nM and leave the unit unwritten.

Worked set:
COC(=O)N[C@H](C(=O)N[C@@H](Cc1ccccc1)[C@@H](O)CN(Cc1ccc(-c2ccccc2)cc1)NC(=O)[C@@H](NC(=O)OC)C(C)(C)C)C(C)C: 3
COC(=O)N[C@H](C(=O)N[C@@H](Cc1ccccc1)[C@@H](O)CN(Cc1ccc(-c2ccccc2)cc1)NC(=O)[C@@H](NC(=O)OC)C(C)(C)C)C(C)(C)C: 3
COC(=O)N[C@H](C(=O)N[C@@H](Cc1ccccc1)[C@@H](O)CN(Cc1ccc(-c2cncs2)cc1)NC(=O)[C@@H](NC(=O)OC)C(C)C)C(C)C: 30

Answer with the recorded ED90 for the compound listed here: "COC(=O)N[C@H](C(=O)NN(Cc1ccc(-c2ccccn2)cc1)C[C@H](O)[C@H](Cc1ccccc1)NC(=O)[C@@H](NC(=O)OC)C(C)(C)C)C(C)C"
10

###

target under test: Human immunodeficiency virus type 1 protease (Human immunodeficiency virus 1)
assay summary: Concentration required to inhibit 50% of RT production in HIV-1/MN-infected MT-2 cells.
Type: functional, cell-based
condition: MT2
measured parameter: ED50
Give the figure together with its unit, number first.

Worked set:
COC(=O)N[C@H](C(=O)N[C@@H](Cc1ccccc1)[C@@H](O)CN(Cc1ccc(-c2ccccn2)cc1)NC(=O)[C@@H](NC(=O)OC)C(C)(C)C)C(C)(C)C [ATAZANAVIR]: 1.4 nM
COC(=O)N[C@H](C(=O)N[C@@H](Cc1ccccc1)[C@@H](O)CN(Cc1ccc(-c2ccccn2)cc1)NC(=O)[C@@H](NC(=O)OC)C(C)C)C(C)C: 7.4 nM
COC(=O)N[C@H](C(=O)N[C@@H](Cc1ccccc1)[C@@H](O)CN(Cc1ccc(-c2ccccc2)cc1)NC(=O)[C@@H](NC(=O)OC)C(C)C)C(C)C: 1.8 nM
CCC(C)[C@H](NC(=O)OC)C(=O)N[C@@H](Cc1ccccc1)[C@@H](O)CN(Cc1ccc(-c2ccccn2)cc1)NC(=O)[C@@H](NC(=O)OC)C(C)C (some centres not stated): 2.8 nM
COC(=O)N[C@H](C(=O)NN(Cc1ccc(-c2ccccn2)cc1)C[C@H](O)[C@H](Cc1ccccc1)NC(=O)[C@@H](NC(=O)OC)C(C)(C)C)C(C)C: 2.6 nM
COC(=O)N[C@H](C(=O)N[C@@H](Cc1ccccc1)[C@@H](O)CN(Cc1ccc(-c2ccccc2)cc1)NC(=O)[C@@H](NC(=O)OC)C(C)(C)C)C(C)(C)C: 0.7 nM
COC(=O)N[C@H](C(=O)N[C@@H](Cc1ccccc1)[C@@H](O)CN(CCC(C)C)NC(=O)[C@@H](NC(=O)OC)C(C)C)C(C)C: 2.7 nM
COC(=O)N[C@H](C(=O)NN(Cc1ccc(-c2cncs2)cc1)C[C@H](O)[C@H](Cc1ccccc1)NC(=O)[C@@H](NC(=O)OC)C(C)(C)C)C(C)C: 1.9 nM

System Human immunodeficiency virus type 1 protease (Human immunodeficiency virus 1). Read-out ED50. Item "COC(=O)N[C@H](C(=O)NN(Cc1ccc(-c2ccccc2)cc1)C[C@H](O)[C@H](Cc1ccccc1)NC(=O)[C@@H](NC(=O)OC)C(C)(C)C)C(C)C" . Report value.
0.7 nM

System Human immunodeficiency virus type 1 protease (Human immunodeficiency virus 1). Read-out ED50. Item "CCOC(=O)N[C@H](C(=O)NN(Cc1ccc(-c2ccccn2)cc1)C[C@H](O)[C@H](Cc1ccccc1)NC(=O)[C@@H](NC(=O)OC)C(C)C)C(C)C" . Report value.
5.4 nM

System Human immunodeficiency virus type 1 protease (Human immunodeficiency virus 1). Read-out ED50. Item "COC(=O)N[C@H](C(=O)N[C@@H](Cc1ccccc1)[C@@H](O)CN(Cc1ccc(-c2cncs2)cc1)NC(=O)[C@@H](NC(=O)OC)C(C)C)C(C)C" . Report value.
5.6 nM

System Human immunodeficiency virus type 1 protease (Human immunodeficiency virus 1). Read-out ED50. Item "CCOC(=O)N[C@H](C(=O)N[C@@H](Cc1ccccc1)[C@@H](O)CN(CC1CCCCC1)NC(=O)[C@@H](NC(=O)OCC)C(C)C)C(C)C" . Report value.
55 nM

###

Tested on: Mus musculus
assay summary: Drug concentration in blood sample was analyzed by reversed phase HPLC 30 min (c30) after oral application of 120 mg/kg in a standardized formulation
Assay type: functional
measured parameter: c30 (µM)
Please respond with the number in µM and leave the unit unwritten.

Worked set:
CCC(C)[C@H](NC(=O)OC)C(=O)N[C@@H](Cc1ccccc1)[C@@H](O)CN(Cc1ccc(-c2ccccn2)cc1)NC(=O)[C@@H](NC(=O)OC)C(C)C (stereo partly drawn): 0.4
COC(=O)N[C@H](C(=O)N[C@@H](Cc1ccccc1)[C@@H](O)CN(Cc1ccc(-c2nccs2)cc1)NC(=O)[C@@H](NC(=O)OC)C(C)(C)C)C(C)(C)C: 9.1

API: the following record is the query input.
Answer with the recorded c30 for the compound listed here: "COC(=O)N[C@H](C(=O)N[C@@H](Cc1ccccc1)[C@@H](O)CN(Cc1ccc(-c2nccs2)cc1)NC(=O)[C@@H](NC(=O)OC)C(C)(C)C)C(C)C"
17.5

###

target under test: Human immunodeficiency virus type 1 protease (Human immunodeficiency virus 1) (UniProt Q72874)
assay summary: concentration of compound required to inhibit 90% of RT production in HIV-1/MN-infected MT-2 cells.
Format: functional, cell-based
condition: MT2
Listing of recorded ED90 by entry.

Answer with the recorded ED90 for the molecule listed here: "CCOC(=O)N[C@H](C(=O)NN(Cc1ccc(-c2cncs2)cc1)C[C@H](O)[C@H](Cc1ccccc1)NC(=O)[C@@H](NC(=O)OC)C(C)(C)C)C(C)C"
3 nM

Answer with the recorded ED90 for the molecule listed here: "COC(=O)N[C@H](C(=O)N[C@@H](Cc1ccccc1)[C@@H](O)CN(Cc1ccc(-c2nnn(C(C)(C)C)n2)cc1)NC(=O)[C@@H](NC(=O)OC)C(C)(C)C)C(C)(C)C"
3 nM

Answer with the recorded ED90 for the molecule listed here: "COC(=O)N[C@H](C(=O)NN(Cc1ccc(-c2cncs2)cc1)C[C@H](O)[C@H](Cc1ccccc1)NC(=O)[C@@H](NC(=O)OC)C(C)(C)C)C(C)C"
10 nM

Answer with the recorded ED90 for the molecule listed here: "CCOC(=O)N[C@H](C(=O)NN(Cc1ccc(-c2ccccn2)cc1)C[C@H](O)[C@H](Cc1ccccc1)NC(=O)[C@@H](NC(=O)OC)C(C)C)C(C)C"
30 nM

Answer with the recorded ED90 for the molecule listed here: "COC(=O)N[C@H](C(=O)N[C@@H](Cc1ccccc1)[C@@H](O)CN(Cc1ccc(-c2ccccn2)cc1)NC(=O)[C@@H](NC(=O)OC)C(C)(C)C)C(C)C"
10 nM

Answer with the recorded ED90 for the molecule listed here: "COC(=O)N[C@H](C(=O)N[C@@H](Cc1ccccc1)[C@@H](O)CN(CCC(C)C)NC(=O)[C@@H](NC(=O)OC)C(C)C)C(C)C"
30 nM
